tested on: LG0567-F671-PDC KRAS tumor spheroid viability; assay: Anticancer human tumor LG0567-F671-PDC patient-derived lung adenocarcinoma cell line growth inhibition [KRAS2]; conditions: second compound 1 µM; first compound 1 µM; hits give low values; spheroids with HUVEC and MSC;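 also: drug exposure lasted seven days after spheroids formed for three days; 100% = DMSO vehicle control viability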

{"columns": ["Molecule", "viability, T/C / %"],
 "data": [
  ["O=C(c1cc(Cc2n[nH]c(=O)c3ccccc23)ccc1F)N1CCN(C(=O)C2CC2)CC1 + C=CC(=O)N1CCN(c2nc(=O)n(-c3c(C)ccnc3C(C)C)c3nc(-c4c(O)cccc4F)c(F)cc23)C(C)C1", 23.6],
  ["Cn1nccc1Nc1nccc(-c2cc3c(s2)C(C)(C)N(CCN2CCOCC2)C3=O)n1 + C=CC(=O)N1CCN(c2nc(OCC3CCCN3C)nc3c2CCN(c2cccc4cccc(C)c24)C3)CC1CC#N", 26.5],
  ["CC(=O)OC12COC1CC(O)C1(C)C(=O)C(O)C3=C(C)C(OC(=O)C(O)C(NC(=O)OC(C)(C)C)c4ccccc4)CC(O)(C(OC(=O)c4ccccc4)C21)C3(C)C (stereo not given) + C=CC(=O)N1CCN(c2nc(=O)n(-c3c(C)ccnc3C(C)C)c3nc(-c4c(O)cccc4F)c(F)cc23)C(C)C1", 12.8],
  ["COC(=O)c1ccc2c(C(=Nc3ccc(N(C)C(=O)CN4CCN(C)CC4)cc3)c3ccccc3)c(O)[nH]c2c1 + C=CC(=O)N1CCN(c2nc(OCC3CCCN3C)nc3c2CCN(c2cccc4cccc(C)c24)C3)CC1CC#N", 28.8],
  ["CCN1CCN(Cc2ccc(Nc3ncc(F)c(-c4cc(F)c5nc(C)n(C(C)C)c5c4)n3)nc2)CC1 + CNCc1ccccc1-c1csc(C(C)Nc2nc(C)nc3cc(OC)c(OC)cc23)c1", 33.9]
]}
